These data points were gathered from patent US20210221899A1.

Listed here are binders together with their documented Percent Similarity Score (KD on rN).
biological target: T1, rat NGF (rat, UniProt P25427 122-241); test: SPR (Biacore T200), 100 nM mAb on NGF chip, similarity to parent mAb
T1 construct: also called rN
T1 sequence (P25427 122-241 limits assumed): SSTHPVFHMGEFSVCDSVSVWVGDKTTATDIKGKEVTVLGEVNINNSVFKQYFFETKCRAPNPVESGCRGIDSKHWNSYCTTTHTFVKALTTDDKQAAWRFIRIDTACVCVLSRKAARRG
Note: unit % is implicit; provide only the numeric part.

[
  {
    "binder": "can9L12VH_S57A (antibody, V domains shown) VH: EVQLVESGGDLVKPGGSLRLSCVASGFTFSSHGMHWVRQSPGKGLQWVAVINSGGSATYYTDAVKGRFTISRDNAKNTVYLQMNSLRAEDTAMYYCAKESVGGWEQLVGPHFDYWGQGTLVIVSS VL: QSVLTQPTSVSGSLGQRVTISCSGSTNNIGILGASWYQLFPGKAPKLLVYGNGNRPSGVPDRFSGADSGDSVTLTITGLQAEDEADYYCQSFDTTLGAHVFGGGTHLTVL",
    "unit.info": "%",
    "Percent Similarity Score (KD on rN)": 100
  }
]

Here's the next entry for you.
Tell me Percent Similarity Score (KD on rN) reported for can48L2VL_S51A (antibody, V domains shown, CDR scanning mutant of ZTS-842 (48L2)) VH: EVQLVESGGDLVKPGGSLRLSCVASGFTFSTYGINWVRQAPGKGLQWVAYISSGGSSTYYADPVKGRFTISRDDAKNMLYLQMNSLRAEDTAIYYCAGSRYTYAYGGGYEFHFWGQGTLVTVSS VL: QAVLNQPASVSGALGQKVTISCSGSTMDIDIFGVSWYQQLPGKAPKLLVDADGDRPSGIPDRFSGSRSGNSGTLTITGLQAEDEADYHCQSGDSTLGALAIFGGGTHVTVL
100
